Assay: protease stability score; higher = more stable; yeast display proteolysis, trypsin and chymotrypsin
RECORDED_METRIC: protease stability score

SEKERMIREMLEETMRSLKTGDEDSIHRLFDPHTRSEIDGKEYHGREEVSKWVRHARIHDFQLEDVRIQGNKAILIGVMHGRVDGRKFTTEVRIFSVKVDGQWVNENLELH	0.993

# input protease stability score for `SELHEEIHKMVQEFLELFLTGDFHRIKQLMDPNVKLIYGDKLFHGRENVEKLHEELRWRYKNATIHVDLREITIFENRAVTDTSIEFDVNGKHISHETKVIIEKIDGQWVIKSIYIN` ?
# output 2.13

# input protease stability score for `SDEERDANRFIKLWVDAMTTGDWEEISLLLDPNVLLLVGDKTYHGREEFVRIMHELIERVKNIRVEIKHREVQGDKIRVDTVLRVNGRTLREHVVMEKVNGQWVIRSLEFD` ?
# output 2.3

====

Parameter protease stability score: see the listing below.
Experiment: protease stability score; higher = more stable; yeast display proteolysis, trypsin and chymotrypsin
# output: bare number, no unit

// solved cases for protease stability score follow
SKDDEIIHTLIRFIVHILQTGNEEESHRMADPNAKSNINGVEVHGREEFVDLWVEWMERLGHDRVHSRLRHVNIQGDKAIMHIELDVNGKEFNLIVFIRKVNGRWYLEEMTID	2.11
TEEEDLIRRQIHELRETLQTGDEHLLNWLLDPHARMEIDGQEVWGREEIAKFLHRFKNITVLFNDMIVQGDKVDIDGQIEFNGRRRRARLISDKVDGQWIDHDIIII	1.3
SHLEEDAEKALRHLIHLFYTGDEKTLHNLADPNTRFRIGDKEYHGMEYILEFWLHIRLEDFDVERMSVQGDKIHIDSRMTLHFNGRSREIEVHILLLKYNGVWRIEEVRIH	1.24
SEDEEWSRLIVEEFIKVLDTGDERLTSEMLDPNARIVIGDKHIHGRESLVELIHRIKNIKFDFKHVNTQGDKVEVDGTIVFNGRTTTVLIRMKKVNGRWFVTEIHIE	1.9
SEEEELTRITEQLMIEHLRTGDWDELQHLLDPDARLHFNGREFIGREIVIKLKLEKLRDLGMTFRDFHIKSWDSQGDKIHLRVREEVEFNGKNIELDVEIIARKVDGKWFIEQIKVR	1.1

For the next question, use this sequence.
# input protease stability score for `SEEERETKLMDEIYQRLFKTGDEHKFLRLADPHAKFHFDGREDHGMHNSTRIWKKLNDILGLDNIRFHVRDWTVFDGVAHVDGKLVINGKEIEVKLHVVVVNGRVKSVSIEHE` ?
# output 0.924

====

Experiment: protease stability score; higher = more stable; yeast display proteolysis, trypsin and chymotrypsin;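 also: relative to predicted unfolded state with 0 unfolded-like and 1 meaning tenfold more protease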
Parameter protease stability score: see the listing below.

// solved cases for protease stability score follow
DEEKEVMKELYEMLIHDLLTGNEESLHKLLDPHVKVDIDGKILHGMEATVKWWKEAGADHTDIHSVERQGEKIIINMILRVGDKTLRLHVHIIVVNGRVESIRVELRHE	1.01
DEFEEAIKLVDDIRSFALLTGDEKELKHMADPNVKLDFNGVELVGMERVWKFFEEIRLVERHVHIKDRDVQGDKVRVDGRQDIEVQQGDKKSRMDIRLDIIIKKVDGRWIVHSLVLI	0.77
DEEEHKSKLAVELWHKVEETGDENTMKRLADPNVRIDINGVELHGMEVLVRRLREMGADHFHVDLRRVTVVNGRVHVNTEVIIRQGDKVIILTTRLHIEKVDGRWKITTIEFE	1.32
SEEEKEIKEILERLIRSLLTGDEQELAKMADPNVRFNFQVGNKKYTLHGREHLRRHITFVFEYLGFDHITIQDSHYQGDKMTVHVELRVNGRRHEIREHWLVVDGRIKEVHVEIH	2.32
SEDEEYMHNVARLLMESLLTGDEKTLKELFDPNTRVDINGKDIHGREDILTDWKRREHEWRVEDIKIEHEEVQGNKAVLHGKVTGDINGVKTHIHRDVHWEVINGKLKYVKFEHR	1.12

# input protease stability score for `SEEEHEADLLHKELWESWHTGDEKHLTNLMDPNVRLQIGDKHYVGRENALNVLHFIRRKLGIKYFELESVTHHEINGRIHTIFDGSILINGKTVKDKIEVDTEKYNGQWRITQINIDFR` ?
# output 2.24

====

Parameter protease stability score: see the listing below.
Assay: protease stability score; higher = more stable; yeast display proteolysis, trypsin and chymotrypsin;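 also: relative to predicted unfolded state with 0 unfolded-like and 1 meaning tenfold more protease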
# output: bare number, no unit

// solved cases for protease stability score follow
SEEEKLQREMSKRWIEEVFTGNEEVFEQLADPNTIIDINGQHLHGMETFSKWSREHIKKLGWTQFDIKMRDSKVIGNKAKLDLELHVNGKVVKVEVNLEVIDGRIKKIEERHH	-0.143
DEIERRAREFFELWMQTVRTGDEHASSELLDPHVRIEQGDKSFHGRETYNEILHHLHRHMWFEIYLDSIEIQGDKIHARVNFVYIIGDKESWIDVHIHIDVINGRMKRLEIRDH	0.511

# input protease stability score for `DHLRELMERVLERYRRALETGNFEELRNLADPHYRVDIDGQELIGMDEYKRHLIKIKNLKIHHVEIKDVKVQGDKAHVDQEDDIEFDGRRMRLRLHYIWLKFNGRWLLHSMEVE` ?
# output 1.85

# input protease stability score for `DEEEKHSEDIADLMLRWWLTGDFELLAKYADPRVRLDINGREFHGREEYEEVMKDLIRRFKNVKIEIRDYEIQGEKVHVDTRLHINGKTHTVHLTFVVIDGVIKSESIRVR` ?
# output 1.27

# input protease stability score for `DEDKHLSDYAMELELHAIKTGDEDLWRELIDPNARLIVGDKTFHGWEHLVTFMVSLGVKHVKLKDLKIQGDKMHSKLEIEFDGRTRTYHVVSLKVDGRWVIESVEVR` ?
# output 1.06

# input protease stability score for `SEVEERFKEEMHRQFENSETGNEDEVAKYFDPDARMHIDGKEIHGRDEVKRILSEWRLTHITLRDFRIVGNKIHTDAEVVIEIGDKKIRYRVHIIQYKVNGQWRVESFEVK` ?
# output 0.88

# input protease stability score for `SEDERDARHYLKEFEHAIETGDEHRLDELLDPNVKIDIDGVEHHGREWFRTLEHHIRVHSRVELKHIEVYGNFIVMDGHLHREIRINGRRIETHSRTIIIMRKVNGRWLVSELRFR` ?
# output 1.52

# input protease stability score for `SEDEELSQKALEMVKHSSDTGDEKTTRQLMDPNYRMVIGDYELHGWELVVDFVRHARYDDLIMRRWDSQGDKIHLDGETIVNVGDKILHTRVRLIALKVNGQWKLNSVIFH` ?
# output 0.149

# input protease stability score for `SEVREDIERILTQWSKIMETGDEHTAKRLADPHVKIEVDGRTSVGMETWMEFLRDLGFKVIHVRVHIEHVRDIDGKARVDIRLVIESNVGDKTERYEHETHMIIEKIDGRWVLTRILLK` ?
# output 1.01

====

Assay: protease stability score; higher = more stable; yeast display proteolysis, trypsin and chymotrypsin;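 also: relative to predicted unfolded state with 0 unfolded-like and 1 meaning tenfold more protease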
Please note: true (1) applies when protease stability score is 1 or greater, and false (0) applies otherwise.

DEDEREVAEVLRRWLHDFLTGDEKEFHRLVDPHVKYREHYNGQQIHVHGRENLFEFIRRRNEEMRMEILIRDWKVQGDYAESEGEVIFDINGRIHSVDLRVEIIVVNGRVSKVHISVN	false (0)
DEIKKVALKMADLIFELYLTGNEELLRKLADPHMKLIIDGREFHGMHVSHEWILRELKEIRIEDWKIKDVHLQGNKVHIDLRVHGVVDGQREERDVKIHIIVINGRIHSMEMHKE	true (1)
DEWKEDSRRAIELELRHLQTGDEDLTEKYADPHARVHIGDKEFHGRDHYIETLRRMGIKHVEVREIREQGDFLKMDVHVNVDGRELTVHFVMRKVNGRWRIHMIEVR	true (1)

Now consider the entry below.
# input Hi, just wondering whether `SEDHELRKHLADRTYKWLATGNFEELMKLMDPNTRFTIGEFNDHGRKAIEWLWRELGVDHFHFREIRVQGDKIHMDTEFEFNGVKVRTHFRVIVIDGRVTSVIILTE` shows protease stability score of 1 or higher.
# output true (1)

====

Assay: protease stability score; higher = more stable; yeast display proteolysis, trypsin and chymotrypsin;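 also: relative to predicted unfolded state with 0 unfolded-like and 1 meaning tenfold more protease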
RECORDED_METRIC: protease stability score
# output: bare number, no unit

// solved cases for protease stability score follow
SEDRKLAEILVKITMDILHTGDEEEWLKLLDPHTRIDFDGRDMHGREFFMKVFRDWGIDNIEVHLHDVKVQGDFLDINVSVHINGRKIDHRLIVEKIDGRWIIREFEVR	1.58
DEEEREARDAVHRFDKDVVTGDEDRLRELMDPNVKLDIGDKEIIGREYMVSFWRELVKHIRIHSITIKRVEVYDGRIHVHQEVTLNIDGQHVTIKSHTIALKVNGKWTWTRFSMT	1.06
TERHEHVLHLLNLFLEEWLTGDWDKFFRLADPNVKYFINGQDIHGRETIRENHEQKWRELRIREIRVHSVDVVGDKAHADITENLEVNGREIRTRSHLDIVVVNGRVHHVRMHVD	0.544
DDIKHEILRLMQLAFHYWETGDWEHFHHLADPHVRIDLDFNGKRLDLHGRDELQRVLEEELKRIDHFELHVTSLTDQGNKAELHGHRHIHQGDKRIDVRVINILIVVDGRIKTYSVHIR	0.909

# input protease stability score for `DEKERKLLEIARLLIESFLTGDWKTFHEMLDPHVRFEVGDKEAHGWEEALRVWDHLKEEMRITDLDIHHYTVQGDKVHIDSRLHGEIDGKRVTFRTRIVVIVVNGRVKQVSYKIT` ?
# output 1.23

# input protease stability score for `SEKETLDQHIARLWVHYWLTGDEDQLHRLADPNVRSIVDGKHVHGMERMLTELKRMRERFDHMHIEIHDIKVFDGVIHIDTTLHVQINGVHRSWESRIIIYLINGRVHSVEIRIL` ?
# output 1.16
